The reported numbers originate from patent US20090291081A1.

Molecular target: T1, human IL-1α (human, UniProt P01583 113-271)
T1 construct: also called IL-1alpha; hIL-1α
T1 sequence (looked up): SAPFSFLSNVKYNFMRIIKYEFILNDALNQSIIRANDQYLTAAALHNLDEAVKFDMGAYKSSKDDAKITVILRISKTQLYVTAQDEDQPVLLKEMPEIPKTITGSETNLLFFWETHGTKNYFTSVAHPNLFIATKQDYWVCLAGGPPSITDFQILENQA
Assay: Table 62 IC50; RBA presumed
pIC50: −log10 of the molar value.
parameter: pIC50

[
  {
    "binder": "ABT1-141-49 (other, VK dAb) VL: DIQMTQSPSSLSASVGDRVTITCRASQWIQKQLAWYQLKPGKAPKLLIYSSSHSQSGVPSRFSGSGSGTDFTLTISSLQPEDFATYYCQQHLRVPMTFGQGTKVEIKR",
    "meas_value": 8.52
  },
  {
    "binder": "ABT1-95-47 (other, VK dAb) VL: DIQMTQSPSSLSASVGDRVTITCRASMPIVRNLRWYQQKPGKAPKLLIYSSSYLEPGVPSRFSGSGSGTDFTLTISSLQPEDFATYHCQQGYRWPVTFGQGTKVEIKR",
    "meas_value": 10.00
  }
]

A: ABT1-122-511 (other, VK dAb) VL: DIQMTQSPSSLSASVGDRVTITCRASQPIWTELNWYQQKPGKAPKLLIYGSSSLQRGVPSRFSGSGSGTDFTLTISSLQPEDFATYYCKQFAYFPATFGQGTKVEIKR
B: ABT1-95-39 (other, VK dAb) VL: DIQMTQSPSSLSASVGDRVTITCRASQPIVRNLRWYQQKPGKAPKLLIYSSSYLEPGVPSRFSGSGSGTDFTLTISGLQPEDFATYHCQQGYRWPVTFGQGTKVEIKR
C: ABT1-95-131 (other, VK dAb) VL: DIQMTQSPSSLSASVGDRVTITCRASQPTVRNLRWYQQKPGKAPKLLIYSSSYLEPGVPSRFSGSGSGTDFTLTISSLQPEDFATYHCQQGYRWPVTFGQGTKVEIKR
Arrange items by their pIC50 values in increasing order. Please respond by ranking the labels in the order requested.
A, B, C
(A: 8.00, B: 9.70, C: 10.00)
